Tested on: KB
Assay method text: Cytotoxicity of compound was determined by assaying cell growth in human neoplastic cell line(KB).
Type: functional, cell-based
Readout name: IC50 (µM)
One number for each entry, in µM.

Worked set:
Ask | # query: IC50 | item `Nc1ncnc2c1c(Br)cn2[C@@H]1O[C@H](CO)[C@@H](O)[C@H]1O` | system: KB
Reply | 3

Ask | # query: IC50 | item Nc1nncc2c1c(Br)cn2C1O[C@H](CO)[C@@H](O)[C@H]1O (stereo not given in full) | system: KB
Reply | 12

Next up:
Ask | # query: IC50 | item `Nc1ncnc2c1ccn2[C@@H]1O[C@H](CO)[C@@H](O)[C@H]1O` | system: KB
Reply | 1
